protocol-details: TAS-115 trough plasma concentrations
Assay type: in vivo, human (patients with solid tumors)
measurement-conditions: human, plasma, po, 250 mg
measure-name: concentration at 24 h (ng/mL)
Record the value in ng/mL, omitting the unit from your answer.

Problem: Give reported concentration at 24 h value for CNC(=O)c1cc2c(Oc3ccc(NC(=S)NC(=O)Cc4ccccc4)cc3F)ccnc2cc1OC [TAS-115, pamufetinib]
Solution: 576

###

system-tested: UniProt P10632
protocol-details: Clinical DDI: pioglitazone plasma PK with and without TAS-115
measurement-conditions: oral, 15 mg
measure-name: AUC(0-inf) (µg·h/mL)
Record the value in µg·h/mL, omitting the unit from your answer.

Problem: Give reported AUC(0-inf) value for CCc1ccc(CCOc2ccc(CC3SC(=O)NC3=O)cc2)nc1 (stereo not shown) [Pioglitazone, pioglitazone, reference compound]
Solution: 7.71

###

Test system: CYP3A4
measurement-conditions: human, plasma, oral, 2.5 mg
measure-name: Cmax (ng/mL)
Record the value in ng/mL, omitting the unit from your answer.

Problem: Give reported Cmax value for Cc1ncc2n1-c1ccc(Cl)cc1C(c1ccccc1F)=NC2 [Midazolam, midazolam, reference compound]
Solution: 21.9

###

system-tested: CYP2C8 (Homo sapiens)
Sequence (P10632 whole entry): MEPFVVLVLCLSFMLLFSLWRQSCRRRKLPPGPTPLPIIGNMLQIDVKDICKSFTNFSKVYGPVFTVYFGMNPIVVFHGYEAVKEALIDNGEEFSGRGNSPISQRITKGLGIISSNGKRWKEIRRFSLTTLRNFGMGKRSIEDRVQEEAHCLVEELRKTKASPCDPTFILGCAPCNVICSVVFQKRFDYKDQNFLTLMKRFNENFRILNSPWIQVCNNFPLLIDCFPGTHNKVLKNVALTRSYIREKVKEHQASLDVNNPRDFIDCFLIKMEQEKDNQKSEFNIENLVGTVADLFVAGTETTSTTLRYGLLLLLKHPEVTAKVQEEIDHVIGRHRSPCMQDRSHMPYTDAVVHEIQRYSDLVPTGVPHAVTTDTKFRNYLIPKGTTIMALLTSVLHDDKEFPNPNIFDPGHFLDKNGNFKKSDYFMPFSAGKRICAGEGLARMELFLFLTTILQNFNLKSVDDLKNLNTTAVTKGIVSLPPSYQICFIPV
protocol-details: Clinical DDI: pioglitazone plasma PK with and without TAS-115
measurement-conditions: oral, 15 mg
measure-name: Cmax (ng/mL)
Record the value in ng/mL, omitting the unit from your answer.

Problem: Name the recorded Cmax of CCc1ccc(CCOc2ccc(CC3SC(=O)NC3=O)cc2)nc1 (stereo not shown) [Pioglitazone, pioglitazone, reference compound] , assay system CYP2C8 (Homo sapiens).
Solution: 635

###

system-tested: CYP2C9 (Homo sapiens)
Sequence (P11712 whole entry): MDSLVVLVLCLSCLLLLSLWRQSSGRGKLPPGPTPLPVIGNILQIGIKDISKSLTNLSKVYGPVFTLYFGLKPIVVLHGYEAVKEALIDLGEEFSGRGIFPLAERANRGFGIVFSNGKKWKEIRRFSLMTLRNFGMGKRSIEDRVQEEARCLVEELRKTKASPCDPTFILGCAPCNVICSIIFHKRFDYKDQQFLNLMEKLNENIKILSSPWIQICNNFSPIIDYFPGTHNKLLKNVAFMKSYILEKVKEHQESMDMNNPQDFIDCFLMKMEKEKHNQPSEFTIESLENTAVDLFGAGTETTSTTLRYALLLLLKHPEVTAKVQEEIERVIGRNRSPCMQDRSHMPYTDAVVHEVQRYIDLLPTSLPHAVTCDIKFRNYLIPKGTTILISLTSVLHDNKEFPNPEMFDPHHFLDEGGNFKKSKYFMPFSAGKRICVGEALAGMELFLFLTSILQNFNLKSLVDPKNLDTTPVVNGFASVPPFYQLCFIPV
protocol-details: clinical
measurement-conditions: plasma, oral, 25 mg
measure-name: Cmax

Problem: Give reported Cmax value for CCCCc1nc(Cl)c(CO)n1Cc1ccc(-c2ccccc2-c2nn[nH]n2)cc1 [Losartan, losartan, reference compound]
Solution: 158 ng/mL

###

Test system: CYP3A4
measurement-conditions: human, plasma, oral, 2.5 mg
measure-name: AUC(0-inf) (ng·h/mL)
Record the value in ng·h/mL, omitting the unit from your answer.

Problem: Name the recorded AUC(0-inf) of Cc1ncc2n1-c1ccc(Cl)cc1C(c1ccccc1F)=NC2 [Midazolam, midazolam, reference compound] , assay system CYP3A4.
Solution: 56.8
